Biological target: RAF kinases (Homo sapiens)
Conditions: read-out: RAF1 Kd; RAF1
Task for the reader: assign each of the following compounds its reported Kd.

Here is how some compounds turned out for Kd.
mol.smiles | Kd
COc1cc2ncnc(Oc3cccc(NC(=O)Nc4cc(C(C)(C)C)nn4-c4ccc(C)cc4)c3C)c2cc1OC | > 1000 nM
COc1cc2ncnc(Sc3cccc(NC(=O)Nc4cc(C(C)(C)C)nn4Cc4ccccc4)c3)c2cc1OC | > 1000 nM
CCOc1cc2c(Oc3cccc(NC(=O)Nc4cc(C(C)(C)F)no4)c3)ncnc2cc1OC | < 250 nM

Give Kd for each listed item.
1. COCCOc1cc2ncnc(Sc3cccc(NC(=O)Nc4cc(C(F)(F)F)n(-c5ccccc5)n4)c3)c2cc1OC
2. CCc1cc(NC(=O)Nc2cccc(Sc3ncnc4cc(OC)c(OC)cc34)c2)n(-c2ccccc2)n1
3. COc1cc2ncnc(Oc3cccc(NC(=O)Nc4cc(C(C)(C)CN5CCOCC5)on4)c3)c2cc1OC
4. COCCOc1cc2ncnc(Sc3cccc(NC(=O)Nc4cc(C(C)(C)C)nn4-c4cccc(C)c4)c3)c2cc1OC
5. CCOc1cc2c(Sc3cccc(NC(=O)Nc4cc(C(C)(C)F)no4)c3)ncnc2cc1OC
6. COc1cc2ncnc(Oc3cccc(NC(=O)Nc4cc(C5(C(F)(F)F)CC5)on4)c3)c2cc1OC
7. COc1cc2ncnc(Oc3cccc(NC(=O)Nc4cc(C(C)(C)C)nn4-c4ccccc4C)c3)c2cc1OC

1. > 1000 nM
2. < 250 nM
3. > 1000 nM
4. > 1000 nM
5. < 250 nM
6. < 250 nM
7. > 1000 nM

* * *

Molecular target: RAF kinases (Homo sapiens)
Assay: biochemical
Task for the reader: assign each of the following molecules its reported Kd.

Here is how some molecules turned out for Kd.
mol.smiles | Kd
COCCOc1cc2ncnc(Sc3cccc(NC(=O)Nc4cccc(C(C)(C)C#N)c4)c3)c2cc1OC | < 250 nM
COc1cc2c(Sc3cccc(NC(=O)Nc4cc(C(C)(C)C)on4)c3)ncnc2cc1OCCCN1CCN(S(C)(=O)=O)CC1 | 500 to 1000 nM
COc1cc2ncnc(Oc3cccc(NC(=O)Nc4ccc(C(F)(F)F)c(F)c4)c3)c2cc1OC | 500 to 1000 nM
COc1cc2ncnc(Sc3cccc(NC(=O)Nc4cc(C(C)(C)C)nn4CC(C)C)c3)c2cc1OC | 250 to 500 nM
COc1cc2ncnc(Sc3cccc(NC(=O)Nc4cc(C(C)(C)C(F)(F)F)on4)c3)c2cc1OC | 250 to 500 nM

Give Kd for each listed item.
1. COc1cc2ncnc(Sc3cccc(NC(=O)Nc4cc(C(C)(C)C)nn4-c4ccncc4)c3)c2cc1OC
2. COc1cc2c(Oc3cccc(NC(=O)Nc4cc(C(C)(C)C)on4)c3)ncnc2cc1OCCCN1CCOCC1
3. COc1cc2ncnc(Oc3cccc(NC(=O)Nc4cc(C(F)(F)F)ncn4)c3)c2cc1OC
4. COc1cc2ncnc(Oc3cccc(NC(=O)Nc4cc(C(C)(C)C)on4)c3)c2cc1O[C@H]1CCN(CC(F)F)C1
5. COCCOc1cc2ncnc(Oc3cccc(NC(=O)Nc4cc(C(C)(C)F)no4)c3)c2cc1OC
6. COc1cc2ncnc(Sc3cccc(NC(=O)Nc4cc(C(C)(C)F)no4)c3)c2cc1OC

1: 500 to 1000 nM; 2: 250 to 500 nM; 3: 250 to 500 nM; 4: 250 to 500 nM; 5: 250 to 500 nM; 6: 250 to 500 nM

* * *

Target: UniProtKB P04049
Sequence (P04049 whole entry): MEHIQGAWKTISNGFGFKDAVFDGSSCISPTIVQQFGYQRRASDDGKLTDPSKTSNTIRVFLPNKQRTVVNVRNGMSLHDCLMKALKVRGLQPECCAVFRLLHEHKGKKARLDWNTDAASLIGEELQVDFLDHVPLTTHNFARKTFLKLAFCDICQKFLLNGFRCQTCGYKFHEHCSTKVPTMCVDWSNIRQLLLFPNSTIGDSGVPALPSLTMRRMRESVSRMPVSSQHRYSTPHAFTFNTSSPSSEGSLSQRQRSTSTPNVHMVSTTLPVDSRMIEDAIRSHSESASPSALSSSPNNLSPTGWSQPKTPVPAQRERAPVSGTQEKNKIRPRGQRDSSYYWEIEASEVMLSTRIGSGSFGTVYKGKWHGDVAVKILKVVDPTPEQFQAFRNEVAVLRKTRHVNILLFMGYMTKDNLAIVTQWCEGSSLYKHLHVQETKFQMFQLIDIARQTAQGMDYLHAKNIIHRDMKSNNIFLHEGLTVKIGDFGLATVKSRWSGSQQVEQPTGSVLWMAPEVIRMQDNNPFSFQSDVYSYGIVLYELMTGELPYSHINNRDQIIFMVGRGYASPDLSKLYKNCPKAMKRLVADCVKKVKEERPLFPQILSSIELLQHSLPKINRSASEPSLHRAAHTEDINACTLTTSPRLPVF
Assay: biochemical
readout.type: Kd

Here is how some compounds turned out for Kd.
compound | Kd
COc1cc2ncnc(Oc3cccc(NC(=O)Nc4ccc(C(C)(C)C)cc4)c3)c2cc1OC | 250 to 500 nM
COc1cc(OC2CCOCC2)c2c(Oc3cccc(NC(=O)Nc4cc(C(C)(C)C)on4)c3)ncnc2c1 | 250 to 500 nM

Give Kd for each listed item.
1. COc1cc2ncnc(Oc3cccc(NC(=O)Nc4cc(C(C)(C)C)nn4-c4ccc(=O)[nH]c4)c3)c2cc1OC
2. COc1cc2c(Sc3cccc(NC(=O)Nc4cc(C(C)(C)C)on4)c3)ncnc2cc1OCCN1CCN(CCO)CC1

500 to 1000 nM
250 to 500 nM

* * *

Task for the reader: assign each of the following compounds its reported Kd.
Molecular target: RAF kinases (Homo sapiens, UniProt P15056)
Sequence (P15056 whole entry): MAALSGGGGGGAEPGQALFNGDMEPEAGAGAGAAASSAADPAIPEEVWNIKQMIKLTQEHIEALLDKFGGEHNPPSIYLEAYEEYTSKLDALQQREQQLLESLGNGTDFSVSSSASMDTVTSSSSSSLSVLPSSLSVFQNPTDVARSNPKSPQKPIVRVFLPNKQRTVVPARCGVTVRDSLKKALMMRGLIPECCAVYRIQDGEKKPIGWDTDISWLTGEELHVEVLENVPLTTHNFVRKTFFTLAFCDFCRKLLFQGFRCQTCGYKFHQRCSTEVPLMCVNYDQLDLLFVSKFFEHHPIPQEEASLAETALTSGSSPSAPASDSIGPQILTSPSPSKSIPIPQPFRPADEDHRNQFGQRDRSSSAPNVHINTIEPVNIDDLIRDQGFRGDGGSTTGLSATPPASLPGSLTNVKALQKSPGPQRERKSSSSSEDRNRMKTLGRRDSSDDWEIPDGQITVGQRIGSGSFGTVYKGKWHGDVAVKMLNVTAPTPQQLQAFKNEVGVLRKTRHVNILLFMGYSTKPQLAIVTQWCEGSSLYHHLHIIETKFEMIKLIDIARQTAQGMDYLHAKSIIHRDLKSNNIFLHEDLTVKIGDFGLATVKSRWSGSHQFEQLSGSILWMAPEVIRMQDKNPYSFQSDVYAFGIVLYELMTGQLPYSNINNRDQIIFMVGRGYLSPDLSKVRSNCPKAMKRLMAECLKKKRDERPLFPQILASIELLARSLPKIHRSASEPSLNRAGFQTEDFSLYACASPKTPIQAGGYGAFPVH
Test: biochemical

Here is how some compounds turned out for Kd.
compound | Kd
CCOc1cc2ncnc(Oc3cccc(NC(=O)Nc4cc(C(F)(F)F)nn4-c4ccccc4)c3)c2cc1OC [Example 384] | 500 to 1000 nM
COc1cc2ncnc(Oc3cccc(NC(=O)Nc4cnn(C(C)(C)C)c4)c3)c2cc1OC [Ex 252] | 250 to 500 nM
COc1cc2c(Oc3cccc(NC(=O)Nc4cc(C(C)(C)C)on4)c3)ncnc2cc1OCCN1CCC(CO)CC1 [Ex 37] | 250 to 500 nM

Give Kd for each listed item.
1. COCCOc1cc2ncnc(Oc3cccc(NC(=O)Nc4cc(C(C)(F)F)no4)c3)c2cc1OC [Ex 211]
2. COc1cc2ncnc(Oc3cccc(NC(=O)Nc4cc(C(C)(C)F)no4)c3)c2cc1OCCCS(C)(=O)=O [Ex 42]
3. COc1cc2ncnc(Oc3cccc(NC(=O)Nc4ccc(C(C)(C)C)cc4)c3)c2cc1OC [Ex 173]
4. COCCOc1cc2ncnc(Oc3cccc(NC(=O)Nc4cccc(C(C)(C)C)c4)c3)c2cc1OC [Ex 119]

1: 500 to 1000 nM; 2: < 250 nM; 3: 500 to 1000 nM; 4: 250 to 500 nM

* * *

Target: RAF kinases (Homo sapiens, UniProt P15056)
Test: biochemical
Where a name gives a salt, the structure may show the parent alone.
readout.type: Kd

compound | result
COc1cc2ncnc(Oc3cccc(NC(=O)Nc4cc(C5CC5)nn4-c4ccccc4)c3)c2cc1OC [Ex 353] | 250 to 500 nM
CC(C)(C)c1cc(NC(=O)Nc2cccc(Sc3ncnc4ccc(OCCCN5CCS(=O)(=O)CC5)cc34)c2)no1 [Ex 90] | 500 to 1000 nM
COc1cc2ncnc(Sc3cccc(NC(=O)Nc4cc(C(C)C)nn4-c4cccnc4)c3)c2cc1OC [Ex 351] | 500 to 1000 nM
COc1cc2c(Sc3cccc(NC(=O)Nc4cc(C(C)(C)C)on4)c3)ncnc2cc1OCCCN1CCC(CO)CC1 [Ex 74] | 250 to 500 nM
COCCOc1cc2ncnc(Oc3cccc(NC(=O)Nc4cc(C(F)(F)F)nn4-c4ccccc4)c3)c2cc1OC [Ex 221] | > 1000 nM
CC(C)(C)c1cc(NC(=O)Nc2cccc(Oc3ncnc4cc5c(cc34)OCCO5)c2)no1 [Ex 14, hydrochloride] | 500 to 1000 nM
COc1cc2c(Sc3cccc(NC(=O)Nc4cc(C(C)(C)F)no4)c3)ncnc2cc1OCCN1CCOCC1 [Ex 248] | 250 to 500 nM
COc1cc2c(Oc3cccc(NC(=O)Nc4cc(C(C)(C)C)on4)c3)ncnc2cc1OCCN1CCS(=O)(=O)CC1 [Ex 39] | 250 to 500 nM

Give Kd for each listed item.
1. COc1cc2ncnc(Sc3cccc(NC(=O)Nc4cc(C(F)(F)F)nn4-c4cccc(C)c4)c3)c2cc1OC [Ex 339]
2. COc1cc2c(Sc3cccc(NC(=O)Nc4ccc(OC)c(C(F)(F)F)c4)c3)ncnc2cc1OCCN1CCOCC1 [Ex 249]
3. CCOc1cccc(NC(=O)Nc2cccc(Oc3ncnc4cc(OC)c(OC)cc34)c2)c1 [Ex 179]
4. COc1cc2ncnc(Sc3cccc(NC(=O)Nc4cc(C(C)(CF)CF)on4)c3)c2cc1OC [Ex 191]
5. COc1cc2c(Oc3cccc(NC(=O)Nc4cc(C(C)(C)C)on4)c3)ncnc2cc1OCCCN1CC[C@H](O)C1 [Ex 33]
6. COCCOc1cc2ncnc(Sc3cccc(NC(=O)Nc4cc(C5CCCC5)on4)c3)c2cc1OC [Ex 235]

["> 1000 nM", "500 to 1000 nM", "500 to 1000 nM", "250 to 500 nM", "250 to 500 nM", "250 to 500 nM"]

Give Kd for each listed item.
1. COc1cc2ncnc(Oc3cccc(NC(=O)Nc4cc(C(C)(C)C)nn4-c4ccccc4F)c3)c2cc1OC [Ex 372]
2. COCCOc1cc2ncnc(Oc3cccc(NC(=O)Nc4cc(C(F)(F)F)no4)c3)c2cc1OC [Ex 229]

1. 500 to 1000 nM
2. 250 to 500 nM

Give Kd for each listed item.
1. COCCOc1cc(NC(=O)Nc2cccc(Sc3ncnc4cc(OC)c(OC)cc34)c2)cc(C(F)(F)F)c1 [Ex 200]
2. COc1cc2ncnc(Oc3cccc(NC(=O)Nc4cc(C(C)(C)C(F)(F)F)on4)c3)c2cc1OC [Ex 259]
3. COc1cc2ncnc(Sc3cccc(NC(=O)Nc4cc(C(C)(C)C)nn4C(C)C)c3)c2cc1OC [Ex 335]
4. COCCOc1cc2ncnc(Oc3cccc(NC(=O)Nc4cc(C(C)(C)COC)on4)c3)c2cc1OC [Ex 217]
5. COc1cc2ncnc(Oc3cccc(NC(=O)Nc4cc(C(C)(C)C#N)nn4-c4ccccc4)c3)c2cc1OC [Ex 308]
6. COc1cc2ncnc(Oc3cccc(NC(=O)Nc4cc(C(C)(C)C)on4)c3)c2cc1OCCCN1CCN(S(C)(=O)=O)CC1 [Ex 25]
7. COc1cc2ncnc(Sc3cccc(NC(=O)Nc4cc(C(C)(F)F)nn4-c4ccccc4)c3)c2cc1OC [Ex 319]

1. 500 to 1000 nM
2. < 250 nM
3. 250 to 500 nM
4. 250 to 500 nM
5. 250 to 500 nM
6. 250 to 500 nM
7. 500 to 1000 nM

Entry COCCOc1cc2ncnc(Sc3cccc(NC(=O)Nc4cc(C(C)(C)C)on4)c3)c2cc1OC [Ex 52, hydrochloride] — recorded Kd = 250 to 500 nM
